TEST DESCRIPTION: Stability of compound at pH 1.5 assessed as change in purity at 1 mg/ml incubated for 24 hrs by HPLC analysis
Type: physicochemical
DETAILS: buffer, pH 1.5, 24 h
OBSERVABLE: Activity (%)
Give just the number in %; leave the unit off.

[Q] Write down Activity measured for item CC(C)C(=O)OCn1c(=O)ccn([C@@H]2O[C@](F)(COC(=O)C(C)C)[C@@H](OC(=O)C(C)C)[C@H]2OC(=O)C(C)C)c1=O
[A] -10.8

[Q] Tell me measured Activity for CC(=O)OC[C@@]1(F)O[C@@H](n2ccc(=O)n(COC(=O)c3cccnc3)c2=O)[C@H](OC(C)=O)[C@@H]1OC(C)=O please.
[A] -15.7

[Q] Look up and report measured Activity for this entry: CC(C)C(=O)OC[C@@]1(F)O[C@@H](n2ccc(=O)n(COC(=O)[C@@H]3CCCN3C)c2=O)[C@H](OC(=O)C(C)C)[C@@H]1OC(=O)C(C)C.Cl
[A] -7.6

[Q] Provide only the value of recorded Activity for O=c1ccn([C@@H]2O[C@](F)(CO)[C@@H](O)[C@H]2O)c(=O)[nH]1
[A] -86.9

Attribution: ChEMBL document CHEMBL6177980
